A collection of compounds and their measured TGI
# Tested on: HCC-2998 colon
# experiment_summary: NCI tumour cell line growth inhibition, 48 h

{"columns": ["compound", "cmp", "TGI [µM]"],
 "data": [
  ["O=C1[C@H]2ON(c3ccccc3)C(c3ccco3)[C@H]2C(=O)N1c1ccc(Cc2ccc(N3C(=O)[C@@H]4ON(c5ccccc5)C(c5ccco5)[C@@H]4C3=O)cc2)cc1 (stereo not given in full)", ">", 100],
  ["O=C1CS(=O)(=O)C(c2cccc(Oc3ccccc3)c2)N1c1cc(Cl)ccc1Cl (stereo not given)", "=", 37.1],
  ["N#CC(C#N)=c1c2nsnc2c(=C(C#N)C#N)c2nsnc12", "=", 3.25],
  ["O=c1c2ccccc2sc2ccccc12", ">", 100],
  ["O=C(CC(C(=O)c1ccco1)c1ccco1)c1ccco1 (stereo not given)", ">", 100]
]}

---

A collection of compounds and their measured TGI
# Test system: OVCAR-3 ovarian
# experiment_summary: NCI tumour cell line growth inhibition, 48 h
assay_endpoint: TGI

{"columns": ["compound", "assay_endpoint", "reading"],
 "data": [
  ["COP(=O)(OC)C(Nc1ccc(Cc2ccc(NC(c3ccco3)P(=O)(OC)OC)cc2)cc1)c1ccco1 (stereo not given)", "TGI", "> 100 µM"],
  ["COc1cc(CNc2nc3ccc(C(F)(F)F)cc3nc2-c2ccccc2)cc(OC)c1OC", "TGI", "> 100 µM"],
  ["O=C1C(C(O)(C(F)(F)F)C(F)(F)F)CCC1C(O)(C(F)(F)F)C(F)(F)F (stereo not given)", "TGI", "> 100 µM"],
  ["COc1cccc2c1OCC1Cc3ccccc3OC21 (stereo not given)", "TGI", "88.8 µM"],
  ["O=c1c2ccccc2sc2ccccc12", "TGI", "> 100 µM"],
  ["CC1(O)CCn2c(=O)c3cc4ccccc4cc3c(=O)n2C1O (stereo not given)", "TGI", "> 100 µM"],
  ["Cc1c(C)c(CC(=O)N2CC2)c(C)c(C)c1CC(=O)N1CC1", "TGI", "51.4 µM"],
  ["CCOC(=O)NC(Nc1c(F)c(F)c(F)c(F)c1F)(C(F)(F)F)C(F)(F)F", "TGI", "> 100 µM"],
  ["COC1C(O)C(O[C@H]2CC[C@@]3(C)C(CC[C@@H]4[C@@H]3CC[C@]3(C)[C@@H](C(C)OC5OC(CO)C(O)C(O)C5O)CC[C@]43O)C2)OC(C)C1OC1OC(CO)C(O)C(O)C1O (stereo not given in full)", "TGI", "> 100 µM"],
  ["COc1ccc2c(c1)c(=O)c1c(NCCNCCO)ccc3c(=O)n(CCN(C)C)c(=O)n2c31", "TGI", "4.62 µM"]
]}

---

A collection of compounds and their measured TGI
# Tested on: 786-0 renal
# experiment_summary: NCI tumour cell line growth inhibition, 48 h

{"columns": ["structure", "TGI"],
 "data": [
  ["O=[N+]([O-])c1cc(Cl)ccc1Sc1ccccc1", "> 100 µM"],
  ["Cc1cc(C)n(C2=NS(=O)(=O)c3ccccc3N2C)n1", "> 100 µM"],
  ["CC1(C)CC(C#Cc2ccccc2)CC(C)(C)N1O", "76.7 µM"],
  ["O=C1c2cccc3cccc(c23)C(=O)N1O", "> 100 µM"],
  ["CCNCCNc1cc(-c2ccc(C#N)cc2)c(C#N)c2nc3ccccc3n12", "7.46 µM"],
  ["COc1ccc2c(NCCCCCCNc3c4ccccc4nc4cc(OC)ccc34)c3ccccc3nc2c1", "1.3 µM"]
]}

# credit: PubChem BioAssay (NCI)
